All figures here come from patent US20180057505A1.

Tested System: PAR2 (HT-29 cells) (Homo sapiens, UniProt P55085)
Construct: host or cells: HT-29
Sequence (P55085 26-397): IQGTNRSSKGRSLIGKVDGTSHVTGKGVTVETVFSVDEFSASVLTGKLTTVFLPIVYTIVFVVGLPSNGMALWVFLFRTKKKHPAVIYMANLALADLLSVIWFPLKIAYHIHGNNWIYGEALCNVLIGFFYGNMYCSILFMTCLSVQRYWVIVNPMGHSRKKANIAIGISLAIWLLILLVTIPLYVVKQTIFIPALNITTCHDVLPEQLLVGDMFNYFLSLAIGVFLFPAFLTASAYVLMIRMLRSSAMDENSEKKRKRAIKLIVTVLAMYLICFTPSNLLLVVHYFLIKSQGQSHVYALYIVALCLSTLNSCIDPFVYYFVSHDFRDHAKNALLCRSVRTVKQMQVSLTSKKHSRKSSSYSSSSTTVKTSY
Test: Ca FLIPR TETRA assay, ANTAGONIST mode, activator 8 μM SLIGKV
Format: cell-based
Reported Conditions: HT-29 cells, activator 8 μM SLIGKV; maximal antagonist concentration per Method (A: 0.1, 1 or 2 μM; B: 50 μM)
pIC50: −log10 of the molar value.
Measured Metric: pIC50

(A) CC(C)c1cc(-c2ccc(F)cc2)nc2sc(C(=O)N3CCN(C(=O)[C@H](O)CC(C)(C)C)CC3(C)C)nc12
(B) Cc1cc(C(=O)N2CCN(C(=O)c3cc4nc(-c5ccc(F)cc5)cc(C5(C)CC5)c4o3)C[C@@H]2C)n(C)n1
Query string: Compare A and B by numeric pIC50 and name the larger one. When you have decided, please share the label of that item.
Result string: A
(A: 8.19, B: 6.47)

(1) CC(C)[C@@H](O)C(=O)N1CCN(C(=O)c2cc3nc(-c4ccc(F)cc4)cc(C4(C)CC4)c3o2)C(C)(C)C1
(2) Cc1nnc(C(=O)N2CCN(C(=O)c3cc4nc(-c5ccc(F)cc5)cc(C(C)(C)C)c4o3)C(C)(C)C2)[nH]1
Query string: # query: argmin of pIC50 over 1 and 2 When you have decided, please share the label of that item.
Result string: 1

(P) CC(C)(C)c1cc(-c2ccc(Cl)c(F)c2)nc2cc(C(=O)N3CCN(c4nc(C(=O)O)co4)CC3(C)C)oc12 [Example I-290]
(Q) Cc1nnc(C(=O)N2CCN(C(=O)c3cc4nc(-c5ccc(Cl)cc5)cc(C(C)(C)C)c4o3)C(C)(C)C2)[nH]1
(R) CC[C@@H](O)C(=O)N1CCN(C(=O)c2cc3nc(-c4ccc(F)cc4)cc(C4(C)CC4)c3o2)C[C@@H]1C
Query string: Form: Sort by [pIC50] Order [ ascending ] To answer, arrange all of the labels according to the requested order.
Result string: R, P, Q
(R: 7.40, P: 8.49, Q: 9.15)

(I) CO[C@@H](C(=O)N1CCN(C(=O)c2cc3nc(-c4ccc(F)cc4)cc(C(C)C)c3o2)C[C@@H]1C)c1ccccc1
(II) CCOC(=O)N1CCN(C(=O)c2cc3nc(-c4ccc(F)cc4)cc(C4(C)CC4)c3o2)C(C)(C)C1
(III) Cc1nnc(C(=O)N2CCN(C(=O)c3cc4nc(-c5ccc(F)c(C)c5)cc(C(C)(C)C)c4o3)C(C)(C)C2)[nH]1
(IV) Cn1cc(C(=O)O)c(C(=O)N2CCN(C(=O)c3cc4nc(C5CC6(CCC6)C5)cc(C(C)(C)C)c4o3)C(C)(C)C2)n1
(V) CC1(c2nc(-c3ccc(F)cc3)nc3cc(C(=O)N4CCNC(=O)C4(C)C)oc23)CC1
Query string: Rank descending by pIC50. To answer, arrange all of the labels according to the requested order.
Result string: IV, III, II, I, V

(P) CC(C)(C)c1cc(-c2ccc(F)cc2)nc2cc(C(=O)N3CCN(C(=O)c4nnc[nH]4)CC3(C)C)oc12
(Q) CC1(c2cc(-c3ccc(F)cc3)nc3cc(C(=O)N4CCN(C(=O)[C@H]5CCCO5)CC4(C)C)oc23)CC1
Query string: Compare P and Q by numeric pIC50 and name the larger one. When you have decided, please share the label of that item.
Result string: P
(P: 8.33, Q: 7.80)

(A) CC(C)(C)c1cc(-c2ccc(F)cc2)nc2cc(C(=O)N3CCN(C(=O)[C@H]4C[C@@](C)(O)C4)CC3(C)C)oc12
(B) CC(C)(C)c1cc(-c2ccc(F)cc2)nc2cc(C(=O)N3CCN(c4ccn[nH]4)C(=O)C3(C)C)oc12
Query string: # query: argmin of pIC50 over A and B When you have decided, please share the label of that item.
Result string: B

(1) CC(C)(C)c1cc(-c2ccc(Cl)c(F)c2)nc2cc(C(=O)N3CCNC(=O)C3(C)C)oc12 [Example I-172]
(2) Cc1ccc(N2CCN(C(=O)c3cc4nc(-c5ccc(Cl)cc5)cc(C(C)(C)C)c4o3)C(C)(C)C2)nn1
(3) CC(C)(C)c1cc(C2CCC(F)(F)CC2)nc2cc(C(=O)N3CCNC(=O)C3(C)C)oc12
(4) Cc1ncc(C(=O)N2CCN(C(=O)c3cc4nc(-c5ccc(Cl)cc5)cc(C(C)(C)C)c4o3)C(C)(C)C2)[nH]1
Query string: Form: Sort by [pIC50] Order [ ascending ] To answer, arrange all of the labels according to the requested order.
Result string: 3, 1, 2, 4
(3: 7.17, 1: 8.00, 2: 8.59, 4: 8.96)

(a) Cc1cc(C(=O)N2CCN(C(=O)c3cc4nc(-c5ccc(F)cc5)cc(C(C)(C)C)c4o3)C(C)(C)C2)no1
(b) C[C@H]1CN(C(=O)c2cc3nc(-c4ccc(F)cc4)cc(C4(C)CC4)c3o2)CCN1C(=O)C1(C)CC1
(c) Cc1cc(N2CCN(C(=O)c3cc4nc(-c5ccc(F)cc5)cc(C(C)(C)C)c4o3)C(C)(C)C2=O)[nH]n1
(d) CCC(C)(O)C(=O)N1CCN(C(=O)c2cc3nc(-c4ccc(F)cc4)cc(C4(C)CC4)c3o2)C(C)(C)C1 (stereo not drawn)
Query string: Rank descending by pIC50. To answer, arrange all of the labels according to the requested order.
Result string: a, c, d, b
(a: 9.15, c: 7.96, d: 7.47, b: 6.22)
